test.system: delta opioid receptor (Rattus norvegicus)
measurement.notes: Rat brain delta opioid receptor binding assay ([3H]DPDPE)
study.conditions: DOR Ki, Rat delta opioid receptor binding constant; rat forebrain membranes, ~4 nM [3H]DPDPE
readout.name: pKi
Value format note: pKi is -log10 of concentration (mol/L); just state the number.

# compound, pKi
rows = [
    ("Nc1ccc(-c2ccc3c(c2)Oc2ccccc2C3=C2CC3CCC(C2)N3)cc1", 6.31),
    ("O=C(c1ccc2c(c1)Oc1ccccc1C2=C1CC2CCC(C1)N2)N1CCC(O)C1 (single isomer, unassigned) [Cpd 69]", 6.98),
    ("COc1cccc2c1Oc1cc(-c3noc(=S)[nH]3)ccc1C2=C1CC2CCC(C1)N2", 8.63),
]

Inquiry: # input compound: `CC(=O)Nc1ccc(-c2ccc3c(c2)Oc2ccccc2C3=C2CC3CCC(C2)N3)cc1` ; wanted: its pKi
Reply text: 6.86

Inquiry: Now give it for `COc1cccc2c1Oc1cc(-c3noc(=O)[nH]3)ccc1C2=C1CC2CCC(C1)N2` too.
Reply text: 9.49

====

# maps each entry to its pKi
test.system: delta opioid receptor (Rattus norvegicus, UniProt P33533)
Sequence (P33533 whole entry): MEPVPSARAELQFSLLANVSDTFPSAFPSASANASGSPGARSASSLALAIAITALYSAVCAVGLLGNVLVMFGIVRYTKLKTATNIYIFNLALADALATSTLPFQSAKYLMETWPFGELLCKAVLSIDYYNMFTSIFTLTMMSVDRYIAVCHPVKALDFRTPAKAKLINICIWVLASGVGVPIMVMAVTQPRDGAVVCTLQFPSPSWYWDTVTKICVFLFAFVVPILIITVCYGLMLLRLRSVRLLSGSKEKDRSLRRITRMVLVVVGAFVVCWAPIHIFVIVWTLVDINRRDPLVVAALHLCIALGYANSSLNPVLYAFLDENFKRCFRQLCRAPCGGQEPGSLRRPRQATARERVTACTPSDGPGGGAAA
measurement.notes: Rat brain delta opioid receptor binding assay ([3H]DPDPE)
study.conditions: DOR Ki, Rat delta opioid receptor binding constant; rat forebrain membranes, ~4 nM [3H]DPDPE
Procedure: Rat Brain Delta Opioid Receptor Binding Assay Procedure: Male, Sprague Dawley rats (150-250 g, VAF, Charles River, Kingston, N.Y.) were killed by CO2, and their brains removed and placed immediately in ice cold Tris HCl buffer (50 mM, pH 7.4). […] To each sample area 2×50 μL of Betaplate Scint scintillation fluid (LKB) was added and the radioactivity quantified on a LKB (Wallac) 1205 BetaPlate liquid scintillation counter. […]
Value format note: pKi is -log10 of concentration (mol/L); just state the number.

Inquiry: # input compound: `NC(=O)c1ccccc1-c1ccc2c(c1)Oc1ccccc1C2=C1CC2CCC(C1)N2` ; wanted: its pKi
Reply text: 7.42

Inquiry: Now give it for `CC(=O)Nc1cccc(-c2ccc3c(c2)Oc2ccccc2C3=C2CC3CCC(C2)N3)c1` too.
Reply text: 7.33

Inquiry: Now give it for `Cc1cccc(-c2ccc3c(c2)Oc2ccccc2C3=C2CC3CCC(C2)N3)c1` too.
Reply text: 6.14

====

test.system: mu opioid receptor (Rattus norvegicus, UniProt P33535)
Sequence (P33535 whole entry): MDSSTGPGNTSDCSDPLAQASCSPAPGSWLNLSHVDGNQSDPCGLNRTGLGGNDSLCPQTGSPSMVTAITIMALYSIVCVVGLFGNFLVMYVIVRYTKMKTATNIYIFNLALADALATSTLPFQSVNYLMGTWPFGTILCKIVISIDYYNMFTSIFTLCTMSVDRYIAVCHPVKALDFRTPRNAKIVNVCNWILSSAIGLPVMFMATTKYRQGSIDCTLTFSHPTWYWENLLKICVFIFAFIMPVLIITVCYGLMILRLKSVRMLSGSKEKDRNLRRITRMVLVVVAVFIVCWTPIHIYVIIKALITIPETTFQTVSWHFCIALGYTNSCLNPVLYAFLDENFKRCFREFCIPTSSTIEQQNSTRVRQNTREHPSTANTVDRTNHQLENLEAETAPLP
measurement.notes: Rat brain mu opioid receptor binding assay ([3H]DAMGO)
study.conditions: MOR Ki, Rat mu opioid receptor binding constant; rat forebrain membranes, ~0.8 nM [3H]DAMGO
# maps each entry to its pKi
Value format note: pKi is -log10 of concentration (mol/L); just state the number.

# compound, pKi
records = [
    ("c1ccc2c(c1)Oc1cc(-c3ccncc3)ccc1C2=C1CC2CCC(C1)N2", 5.74),
    ("CN1C2CCC1CC(=C1c3ccccc3Sc3cc(-c4cccnc4)ccc31)C2", 6.96),
    ("COCCN(C)C(=O)c1ccc2c(c1)Oc1ccccc1C2=C1CC2CCC(C1)N2", 5.74),
]

Inquiry: Hi! What's the reported pKi for CCN(CC)C(=N)c1ccc2c(c1)Oc1ccccc1C2=C1CC2CCC(C1)N2 [Cpd 125] on mu opioid receptor (Rattus norvegicus, UniProt P33535)?
Reply text: 5.69

Inquiry: Now give it for `CC(=O)Nc1cccc(-c2ccc3c(c2)Oc2ccccc2C3=C2CC3CCC(C2)N3)c1` too.
Reply text: 5.55
